Target: human insulin-like growth factor-II (IGF-II) (human, UniProt P01344 25-91)
Assay: cell-based or functional assay
PROPERTY LABEL: Max % Inhibition (333.3 nM), n = 1, IGF-II Proliferation, BxPC3 cells

QUERY: Annotate the binder mAb 7.159.2 (antibody, V domains shown, Fully human XenoMouse hybridoma mAb, lambda light chain (V1-19/JL2); Sister clones 7.159.1 and 7.159.2 are said to be identical; also called 7.159.1; 7_159_1) VH: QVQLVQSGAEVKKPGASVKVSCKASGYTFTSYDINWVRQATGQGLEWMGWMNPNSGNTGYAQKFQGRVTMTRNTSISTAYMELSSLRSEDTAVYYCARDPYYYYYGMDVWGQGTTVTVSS VL: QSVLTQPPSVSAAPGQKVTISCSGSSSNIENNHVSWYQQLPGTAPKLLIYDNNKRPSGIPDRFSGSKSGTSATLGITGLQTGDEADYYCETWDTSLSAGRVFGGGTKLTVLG with its measured Max % Inhibition (333.3 nM), n = 1, IGF-II Proliferation, BxPC3 cells.
RESULT: 120%
